Biological target: C-X-C chemokine receptor type 3 (Homo sapiens, UniProt P49682)
Sequence (P49682 whole entry): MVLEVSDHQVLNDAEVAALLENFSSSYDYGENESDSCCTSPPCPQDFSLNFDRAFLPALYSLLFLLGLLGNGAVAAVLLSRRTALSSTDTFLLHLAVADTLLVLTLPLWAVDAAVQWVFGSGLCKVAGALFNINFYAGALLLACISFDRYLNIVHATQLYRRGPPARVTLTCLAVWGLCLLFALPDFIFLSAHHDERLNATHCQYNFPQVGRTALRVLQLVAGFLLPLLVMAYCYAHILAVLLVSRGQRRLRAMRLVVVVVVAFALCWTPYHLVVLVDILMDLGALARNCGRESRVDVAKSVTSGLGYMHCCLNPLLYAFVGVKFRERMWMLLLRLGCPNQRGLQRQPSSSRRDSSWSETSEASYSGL
Experiment: Antagonist activity at CXCR3 (unknown origin) assessed as reduction in CXCL10 induced calcium flux by [35S]GTPgammaS binding assay
pIC50: −log10 of the molar value.
quantity_name: pIC50

(I) O=C(Nc1ccccc1)N1CCCC(c2ccccc2)(C2CCN(Cc3ccc(Br)cc3)CC2)C1 (configuration not stated)
(II) CC(=O)Nc1cccc(/C(C)=N\NC(=O)c2ccc(CN(Cc3ccccc3)S(=O)(=O)c3ccc(Cl)cc3)cc2)c1
Could you please tell me which of these two has the higher pIC50: I or II ? // caller expects the label of the chosen entry
I
